- Tested on: S4
- Test Method Notes: MIC determination (bacteria), strain S4
- Assay type: cell-based, S. aureus
- Experimental Parameters: Table 1; 2-fold broth dilution
Define the label as condition met when MIC S4 is strictly less than 1 µg/mL and as condition not met in all remaining cases.

Please review the entries below; each comes with its answer.
Task item: Dear reviewer, please state whether CCCCCCCCCC(O)=C1C(=O)C(CCSC)N(C(=O)CC(C)CC(C)(C)C)C1=O (stereo not drawn) [24k] has MIC S4 strictly beneath 1 µg/mL.
Reply: condition met

Task item: Dear reviewer, please state whether CCCCCCCC=CC(=O)N1C(=O)C(=C(C)O)C(=O)C1CC(C)C (stereo not drawn) [23a] has MIC S4 strictly beneath 1 µg/mL.
Reply: condition not met

Task item: Dear reviewer, please state whether CCCCCCCC=CC(=O)N1C(=O)C(=C(O)CCC)C(=O)C1CC(C)C (stereo not drawn) [23b] has MIC S4 strictly beneath 1 µg/mL.
Reply: condition met

Task item: Dear reviewer, please state whether CCCCCCCCCC(O)=C1C(=O)CCN(C(=O)c2ccccc2)C1=O [25a] has MIC S4 strictly beneath 1 µg/mL.
Reply: condition not met

Next:
Task item: Dear reviewer, please state whether CCCCCCCCCCC(O)=C1C(=O)C(CCSC)N(C(C)=O)C1=O (stereo not drawn) [24a] has MIC S4 strictly beneath 1 µg/mL.
Reply: condition not met

Task item: Dear reviewer, please state whether CCCCCCCCCC(O)=C1C(=O)C(CCSC)N(C(=O)Cc2cccs2)C1=O (stereo not drawn) [24m] has MIC S4 strictly beneath 1 µg/mL.
Reply: condition not met

Task item: Dear reviewer, please state whether CCCCCCCC(O)=C1C(=O)C(CCSC)N(C(=O)C2CCCCC2)C1=O (stereo not drawn) [24e] has MIC S4 strictly beneath 1 µg/mL.
Reply: condition not met

Task item: Dear reviewer, please state whether CCCCCCCC=CC(=O)N1C(=O)C(=C(O)CCCCC)C(=O)C1CC(C)C (stereo not drawn) [23c] has MIC S4 strictly beneath 1 µg/mL.
Reply: condition met

Task item: Dear reviewer, please state whether CCCCCC(O)=C1C(=O)C(CCSC)N(C(=O)C2CCCCC2)C1=O (stereo not drawn) [24d] has MIC S4 strictly beneath 1 µg/mL.
Reply: condition not met

Task item: Dear reviewer, please state whether CCCCCCCCCC(O)=C1C(=O)CCN(C(=O)c2ccc(OC)cc2)C1=O [25d] has MIC S4 strictly beneath 1 µg/mL.
Reply: condition not met

Task item: Dear reviewer, please state whether CCCCCCCCCCCC(O)=C1C(=O)CCN(C(=O)c2ccccc2)C1=O [25b] has MIC S4 strictly beneath 1 µg/mL.
Reply: condition met

Task item: Dear reviewer, please state whether CCCCCCCC(O)=C1C(=O)C(CCSC)N(C(=O)CC(C)CC(C)(C)C)C1=O (stereo not drawn) [24j] has MIC S4 strictly beneath 1 µg/mL.
Reply: condition met

Task item: Dear reviewer, please state whether CCCCCC(O)=C1C(=O)C(CCSC)N(C(=O)CC(C)CC(C)(C)C)C1=O (stereo not drawn) [24i] has MIC S4 strictly beneath 1 µg/mL.
Reply: condition met
